Values were extracted from patent US20260008852A1.

Target: T1, B7-H3 on B7-H3-expressing CHO cells (Genescript) (UniProt Q5ZPR3 29-534, limits assumed)
T1 construct: whole, on cells; also called CHO-K1/B7-H3; MFI B7-H3
T1 sequence (looked up): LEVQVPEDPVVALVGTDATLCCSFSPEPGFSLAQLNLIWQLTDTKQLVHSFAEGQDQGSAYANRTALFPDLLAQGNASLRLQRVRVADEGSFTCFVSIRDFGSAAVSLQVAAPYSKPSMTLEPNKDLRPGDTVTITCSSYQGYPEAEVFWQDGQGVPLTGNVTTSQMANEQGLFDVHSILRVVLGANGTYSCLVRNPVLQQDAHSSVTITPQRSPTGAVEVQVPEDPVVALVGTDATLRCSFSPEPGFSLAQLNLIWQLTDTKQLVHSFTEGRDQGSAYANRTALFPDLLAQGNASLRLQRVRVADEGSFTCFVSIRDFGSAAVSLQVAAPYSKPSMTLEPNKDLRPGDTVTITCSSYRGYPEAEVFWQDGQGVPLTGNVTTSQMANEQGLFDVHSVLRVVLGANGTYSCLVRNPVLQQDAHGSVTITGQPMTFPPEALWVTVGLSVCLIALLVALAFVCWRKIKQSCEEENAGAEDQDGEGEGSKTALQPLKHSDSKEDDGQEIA
Assay: flow cytometry, B7-H3-expressing CHO cells, 10 ug/ml
quantity name: MFI @ 10 ug/ml
Quick note: number first, unit second.

40511p1.1.H10 (scFv, V domains shown, Tested as scFv-Fc (Expi293 supernatant)) VH: DVQLVESGGGVVRPGESLRLSCAASGFTFSNYAMNWVRQAPGEGLEWVSRINYKGYNITYYADSVKGRFTISRDNSKNTLYLQMNSLRAEDTAVYYCAKSGSNSNNFFDYWGLGTLVTVSS VL: EIVLTQSPGNLSLSPGERATLSCRASQSVGSQLGWYQQKPGQAPRLLIYGASTRATGIPDRFSGSGSGTEFALTISSLQSEDFAVYYCQQYYDWPPLTFGGGTKVEIK : 22100 MFI

// switching to the query binder
Report MFI @ 10 ug/ml, nothing else, for this binder: 40511p1.2.A4 (scFv, V domains shown, Tested as scFv-Fc (Expi293 supernatant)) VH: DVQLVESGGGVVRPGESLRLSCAASGFTFSSYAESWVRQAPGEGLEWVSIISGSGGNTFYADSVKGRFTISRDNSKNTLYLQMNSLRAEDTAVYYCARFAYGFFDYWGLGTLVTVSS VL: EIVLTQSPGTLSVSPGERATLSCRASQTVGSKLAWYQQKPGQAPRLLIYDASTRATDIPDRFSGSGSGTDFTLTISSLQSEDFAVYYCQQYRNWPPLTFGGGTKVEIK
82700 MFI
